# ASSAY_METHOD_TEXT: reversal of MRP1-mediated doxorubicin resistance, pilot screen, H69AR cells, doxorubicin co-treatment (AID 601)
# PARTICULARS: H69AR cells, CellTiter-Glo, 72 h; compound alone cytotoxicity; at 10 µM

COMPOUND: CCOC(=O)c1c(NC(=O)c2ccn(CC)n2)sc2c1CCCC2
READING_UNIT: %
viability: 77.2
//
COMPOUND: COc1ccc(CCn2c(NCCCN3CCOCC3)nc3c2c(=O)[nH]c(=O)n3C)cc1
READING_UNIT: %
viability: 87.3
//
COMPOUND: O=C(c1ccccc1)c1ccc(N2CCOCC2)c(NC(=O)c2ccco2)c1
READING_UNIT: %
viability: 87.3
//
COMPOUND: Cc1ccc(Nc2nc(CSc3nnnn3C)cs2)cc1
READING_UNIT: %
viability: 113
//
COMPOUND: Cc1cc(N2CCC3(CC2)OCCO3)n2nc(C)c(-c3ccc(Cl)cc3)c2n1
READING_UNIT: %
viability: 90.9
//
COMPOUND: Cc1cc(C)nc(N2CCC(C(=O)NC3CCCCCC3)CC2)n1
READING_UNIT: %
viability: 96.1
//
COMPOUND: CC1=CC=CC2=NC(=O)CC(C)(C(=O)N(CC(=O)NC(C)C)C3CCCC3)N12 (stereo unspecified)
READING_UNIT: %
viability: 94
//
COMPOUND: COc1ccc(-c2nnc3sc(-c4c(OC)cccc4OC)nn23)cc1
READING_UNIT: %
viability: 75.9
//
COMPOUND: COc1ccccc1CC1(C)NC(=O)N(CC(=O)Nc2cc(C)on2)C1=O (stereo unspecified)
READING_UNIT: %
viability: 92.7
//
COMPOUND: CSC1=C(C#N)C(c2ccc(Cl)cc2)C2=C(CC(C)(C)CC2=O)N1 (stereo unspecified)
READING_UNIT: %
viability: 66
//
COMPOUND: CCOc1ccc(CN2CCN(c3cc(C)nc4c5c(C)cc(C)nc5nn34)CC2)cc1
READING_UNIT: %
viability: 88.8
//
COMPOUND: N#Cc1nc(-c2cccs2)oc1NCCc1ccccc1
READING_UNIT: %
viability: 102
//
COMPOUND: Cc1cc2c(s1)c1cnn(CC(=O)NCCc3ccccc3)c(=O)c1n2C
READING_UNIT: %
viability: 87.1
//
COMPOUND: Cn1c(=O)c(C(=O)Nc2cccnc2)c(O)c2ccccc21
READING_UNIT: %
viability: 88.4
//
COMPOUND: COC(=O)c1ccccc1S(=O)(=O)N(CCCO)Cc1cc2c(C)ccc(C)c2[nH]c1=O
READING_UNIT: %
viability: 79.3
//
COMPOUND: Cc1nc(N2CCOCC2)[nH]c(=O)c1CCC(C)C
READING_UNIT: %
viability: 91.9
//
COMPOUND: C=CCOc1nc2c(c(=O)n(C)c(=O)n2C)n1C
READING_UNIT: %
viability: 94.4
//
COMPOUND: O=c1c2nnn(Cc3ccc(Cl)cc3)c2ncn1Cc1ccc(F)cc1
READING_UNIT: %
viability: 94.6
//
COMPOUND: c1ccc(-n2ncc3c(N4CCCCC4)ncnc32)cc1
READING_UNIT: %
viability: 70
//
COMPOUND: Cc1cccc(C(=O)N2CCC(n3nnc4cc(F)ccc43)CC2)c1
READING_UNIT: %
viability: 86.4
//
COMPOUND: COc1ccc(C2(C(=O)N3CCCC3)CCOCC2)cc1OC
READING_UNIT: %
viability: 97.2
//
COMPOUND: Cc1ccccc1NC(=O)C1Cc2ccccc2C(=O)O1 (stereo unspecified)
READING_UNIT: %
viability: 98.7
//
COMPOUND: CCOc1ccccc1NC(=O)CSc1c(C)n[nH]c1C
READING_UNIT: %
viability: 113
//
COMPOUND: COc1cc(OC)nc(NC(=O)CSc2nc3ccccc3o2)n1
READING_UNIT: %
viability: 92.4
//
COMPOUND: COc1ccc(C2=NO[C@@H]3C(=O)N(c4ccc5c(c4)OCCO5)C(=O)[C@H]23)cc1OC
READING_UNIT: %
viability: 80.3
//
COMPOUND: O=C(Nc1ccccn1)NC(C(F)(F)F)C(F)(F)F
READING_UNIT: %
viability: 92.9
//
COMPOUND: O=C(Nc1cccc(C(F)(F)F)c1)c1ccco1
READING_UNIT: %
viability: 103
//
COMPOUND: CC(=O)c1c(C)[nH]c(C(=O)N2CCN(C(=O)c3ccco3)CC2)c1C
READING_UNIT: %
viability: 99.1
//
COMPOUND: O=C1CCc2cc(S(=O)(=O)N3CCC(C(=O)NCc4ccccn4)CC3)ccc2N1
READING_UNIT: %
viability: 96.7
//
COMPOUND: C=CCN(C(=O)CNC(=O)c1ccco1)C(C(=O)NC1CCCCC1)c1ccccc1F (stereo unspecified)
READING_UNIT: %
viability: 100
//
COMPOUND: CCOc1ccc(NCc2nnc(SCC(=O)Nc3cc(C)on3)n2-c2ccccc2OC)cc1
READING_UNIT: %
viability: 13.1
//
COMPOUND: CCc1nnc(NC(=O)CN2CCN(c3ccccc3OC)CC2)s1
READING_UNIT: %
viability: 50.7
//
COMPOUND: Cc1nc2cc(-n3ccc(=O)cc3)ccc2n1-c1ccccc1
READING_UNIT: %
viability: 90.5
//
COMPOUND: O=c1[nH]c(SCc2cc(=O)n3ccccc3n2)nc2c1CCC2
READING_UNIT: %
viability: 85.2
//
COMPOUND: COCCN1CCN(c2c(C)c(C)nc3cc(-c4cccc(OC)c4)nn23)CC1
READING_UNIT: %
viability: 95.4
//
COMPOUND: COc1ccc(N(CC(=O)NC2CCCC2)C(=O)Cn2nnc(-c3ccc(C)cc3)n2)cc1
READING_UNIT: %
viability: 89.1
